testDetails: NCI Yeast Anticancer Drug Screen. Data for the sgs1 mgt1 strain (AID 161);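 also: 0% = growth of cultures given vehicle only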
settings: S. cerevisiae sgs1 mgt1 strain, at 50.0 µM, hits give high values
This is part of a sample that, as a whole, favours compounds with a hit. Of some 79,000 tested, about 15% had one in any assay.
Rule: growth inhibition of 90% or more gives condition met; anything lower gives condition not met.

Q: Identify whether the reported growth inhibition of the following compound is 90% or greater: N#C/C(=C/N1C(=O)/C(=C/c2ccc([N+](=O)[O-])cc2)SC1=S)c1nc2ccccc2s1
Ans: condition not met

Q: Identify whether the reported growth inhibition of the following compound is 90% or greater: N#C/C(=C1C=C/C(=N/O)c2ccccc2/1)c1ccccc1
Ans: condition met

Q: Identify whether the reported growth inhibition of the following compound is 90% or greater: CCc1nc(N)nc(N)c1-c1ccc(NCCCCCCN)c([N+](=O)[O-])c1
Ans: condition met

Q: Identify whether the reported growth inhibition of the following compound is 90% or greater: O=c1ccc(N=Nc2ccccc2)ccc1O
Ans: condition met

Q: Identify whether the reported growth inhibition of the following compound is 90% or greater: COc1cc(N(C)C)ccc1/C=C\c1ccnc2ccccc12
Ans: condition not met

###

Below, each entry is listed with its recorded growth inhibition.
testDetails: NCI Yeast Anticancer Drug Screen. Data for the mlh1 rad18 strain (AID 175)
settings: S. cerevisiae mlh1 rad18 strain growth inhibition; at 50.0 µM (retest, dose inferred, filed as 5.0); hits give high values
Description: Growth inhibition of yeast strains with defined genetic alterations is measured as a screen for potential anti-cancer activity. Selected strains with alterations in DNA damage repair or cell cycle control were exposed to compounds and growth inhibition was measured relative to vehicle treated controls. The strain used in this assay is mlh1 rad18
The panel holds about 79,000 compounds, 15% with a hit somewhere; the sample as a whole holds those more often.
Answer in %, number only, no unit symbol.

Observe how each entry below is paired with its result.
COC(=O)/C=C1/OC(c2ccc(Br)cc2)=C(Br)C1=O
49
CCc1nc(N)nc(N)c1-c1ccc(NCCCCCCN)c([N+](=O)[O-])c1
-34
OCCNCCOc1ccc(/C(=C(/Cl)c2ccccc2)c2ccccc2)cc1
99
O=S(=O)(N/N=C/c1cccc(Cl)c1)c1ccccc1
95
CO[C@@]12[C@H](COC(N)=O)C3=C(C(=O)C(C)=C(N)C3=O)N1C[C@@H]1N[C@@H]12
92
CC(C)(C)c1ccc(O)c(C(c2ccc([N+](=O)[O-])cc2)c2cc(C(C)(C)C)ccc2O)c1
93

Q: Note down growth inhibition recorded for CCCCCCSc1nc(COC(=O)NC)c(COC(=O)NC)n1C
Ans: 74

Q: Note down growth inhibition recorded for CCOC(=O)Nc1ccc2c(c1)Cc1ccccc1-2
Ans: -25

###

testDetails: NCI Yeast Anticancer Drug Screen. Data for the rad50 strain (AID 155);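 also: 0% = growth of vehicle-only cultures of the same strain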
settings: S. cerevisiae rad50 strain growth inhibition; at 5.0 µM (retest, dose inferred, filed as 0.5); hits give high values
The panel holds about 79,000 compounds, 15% with a hit somewhere; the sample as a whole holds those more often. Active and inactive are the calls of the source. Cut-off read from the data, not from the text of the source: active = growth inhibition above about 70%; inactive = the rest.
Below, each entry is listed with its recorded growth inhibition.

Q: Note down growth inhibition recorded for O=C(O)c1cccc2cccc(-c3c4ccc(=O)cc-4oc4cc(O)ccc34)c12
Ans: 29% (inactive)

Q: Note down growth inhibition recorded for Cc1ccc(S(=O)(=O)N/N=C/C2(c3ccccc3)c3ccccc3-c3ccccc32)cc1
Ans: 38% (inactive)

Q: Note down growth inhibition recorded for CCCCCCCCN1C(=O)c2ccccc2C1=O
Ans: 20% (inactive)

Q: Note down growth inhibition recorded for O=C1CC(=O)N(C2CCCCC2)C(=O)N1c1ccccc1S(=O)(=O)Oc1ccccc1
Ans: 66% (inactive)

Q: Note down growth inhibition recorded for Nc1nc2c(c(=O)[nH]1)NC(CCNc1ccc(C(=O)O)cc1)CN2 (stereo unspecified)
Ans: 14% (inactive)

Q: Note down growth inhibition recorded for O=C(/C=N/O)Nc1cc(Cl)c(Cl)cc1Cl
Ans: 45% (inactive)
